# assayTarget: T1, secretory phospholipase A2 (sPLA2) (Homo sapiens, UniProt P14555 P14555:21-144)
# T1 sequence: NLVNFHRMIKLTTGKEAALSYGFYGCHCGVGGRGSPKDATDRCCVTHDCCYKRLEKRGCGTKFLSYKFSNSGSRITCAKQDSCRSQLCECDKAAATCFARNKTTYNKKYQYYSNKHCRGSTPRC
# testDetails: filter; biphasic, Kd2 270 nM, mole fraction 0.13; Table III prints SEQ 103, Table IV SEQ 20; TBSC, 37 C
# conditionDetails: tags: supplied by Eli Lilly

>  <binder>
72 (ssRNA) RNA: GGGAGCUCAGAAUAAACGCUCAAGACCUCUGCUUACAGCCCGGCUGAGACACUUCGACAUGAGGCCCGGAUCCGGC

>  <Kd / nM>
0.5

$$$$

This collection of values is drawn from patent US5622828.
